# Tested on: ART24
# PROTOCOL_NOTES: Antibiotic susceptibility of ART24 lots and cell banks, MIC following EFSA testing recommendations (Table 3)
# Assay type: cell-based, Bacillus amyloliquefaciens
# CONDITION_PARAMETERS: Bacillus amyloliquefaciens; ART24 source: lyophilized lot CO-33-10A2; read-out: MIC, CO-33-10A2
Kindly apply the following: fulfilled if MIC is less than 0.2 µg/mL, not fulfilled in every other case.

Examples with answers:
SMILES_TEXT	GROUP
CC1(C)S[C@@H]2[C@H](NC(=O)[C@H](N)c3ccccc3)C(=O)N2[C@H]1C(=O)O	fulfilled
CO[C@H]1/C=C/O[C@@]2(C)Oc3c(C)c(O)c4c(O)c(c(/C=N/N5CCN(C)CC5)c(O)c4c3C2=O)NC(=O)/C(C)=C\C=C\[C@H](C)[C@H](O)[C@@H](C)[C@@H](O)[C@@H](C)[C@H](OC(C)=O)[C@@H]1C	not fulfilled

Would you kindly verify if MIC of "O=C(O)c1cn(C2CC2)c2cc(N3CCNCC3)c(F)cc2c1=O" is strictly less than 0.2 µg/mL?
fulfilled

Would you kindly verify if MIC of "O=C(N[C@H](CO)[C@H](O)c1ccc([N+](=O)[O-])cc1)C(Cl)Cl" is strictly less than 0.2 µg/mL?
not fulfilled

Would you kindly verify if MIC of "CC[C@H]1OC(=O)[C@H](C)[C@@H](O[C@H]2C[C@@](C)(OC)[C@@H](O)[C@H](C)O2)[C@H](C)[C@@H](O[C@@H]2O[C@H](C)C[C@H](N(C)C)[C@H]2O)[C@](C)(O)C[C@@H](C)C(=O)[C@H](C)[C@@H](O)[C@]1(C)O" is strictly less than 0.2 µg/mL?
fulfilled

Would you kindly verify if MIC of "CCc1c(Cl)c(O)c(Cl)c(O)c1C(=O)O[C@H]1[C@H](O)[C@H](OC)[C@H](OC/C2=C\C=C\C[C@H](O)/C(C)=C/[C@H](CC)[C@@H](O[C@@H]3OC(C)(C)[C@@H](OC(=O)C(C)C)[C@H](O)[C@@H]3O)/C(C)=C/C(C)=C/C[C@@H]([C@@H](C)O)OC2=O)O[C@@H]1C" is strictly less than 0.2 µg/mL?
not fulfilled

Would you kindly verify if MIC of "[H]/N=C(/N)N[C@H]1[C@H](O)[C@@H](O)[C@H](O[C@@H]2O[C@@H](C)[C@](O)(C=O)[C@H]2O[C@@H]2O[C@@H](CO)[C@H](O)[C@@H](O)[C@@H]2NC)[C@@H](N/C(N)=N\[H])[C@@H]1O" is strictly less than 0.2 µg/mL?
not fulfilled

Would you kindly verify if MIC of "CN(C)[C@@H]1C(O)=C(C(N)=O)C(=O)[C@@]2(O)C(O)=C3C(=O)c4c(O)cccc4[C@@](C)(O)[C@H]3C[C@@H]12" is strictly less than 0.2 µg/mL?
not fulfilled

Would you kindly verify if MIC of "CC(=O)NC[C@H]1CN(c2ccc(N3CCOCC3)c(F)c2)C(=O)O1" is strictly less than 0.2 µg/mL?
not fulfilled

Would you kindly verify if MIC of "CCC[C@@H]1C[C@@H](C(=O)N[C@@H]([C@H]2O[C@H](SC)[C@H](O)[C@@H](O)[C@H]2O)[C@H](C)Cl)N(C)C1" is strictly less than 0.2 µg/mL?
fulfilled
